Let's look at some molecules and their measured MIC.
System: Escherichia coli
run description: Antibacterial activity against tolC deficient Escherichia coli LBB925
Format: functional
endpoint label: MIC (mg/L)

[[record]]
smiles_repr = "Clc1cccc(Nc2nc(Nc3cccc(Cl)c3)nc(Nc3cccc(Cl)c3)n2)c1"
endpoint_label = "MIC"
unit_annotation = "mg/L"
value_relation_sign = ">"
reported = 128

[[record]]
smiles_repr = "CN1CCN(c2nc(Nc3ccc(F)cc3)nc(Nc3ccc(F)cc3)n2)CC1"
endpoint_label = "MIC"
unit_annotation = "mg/L"
value_relation_sign = "="
reported = 16

[[record]]
smiles_repr = "O=[N+]([O-])c1ccc(Nc2nc(NCCN3CCOCC3)nc(Nc3ccc(Cl)cc3)n2)cc1"
endpoint_label = "MIC"
unit_annotation = "mg/L"
value_relation_sign = ">"
reported = 128

[[record]]
smiles_repr = "CC(C)CN1CCN(c2nc(Nc3ccc(F)c(F)c3)nc(Nc3ccc(F)c(F)c3)n2)CC1"
endpoint_label = "MIC"
unit_annotation = "mg/L"
value_relation_sign = ">"
reported = 128

[[record]]
smiles_repr = "Fc1ccc(Nc2nc(Nc3ccc(F)c(F)c3)nc(N3CCN(Cc4ccccc4)CC3)n2)cc1F"
endpoint_label = "MIC"
unit_annotation = "mg/L"
value_relation_sign = ">"
reported = 128

[[record]]
smiles_repr = "Fc1ccc(Nc2nc(NCCN3CCOCC3)nc(Nc3ccc(F)c(F)c3)n2)cc1F"
endpoint_label = "MIC"
unit_annotation = "mg/L"
value_relation_sign = "="
reported = 16

[[record]]
smiles_repr = "OCCN1CCN(c2nc(Nc3ccc(F)c(F)c3)nc(Nc3ccc(F)c(F)c3)n2)CC1"
endpoint_label = "MIC"
unit_annotation = "mg/L"
value_relation_sign = "="
reported = 16

[[record]]
smiles_repr = "Clc1ccc(Nc2nc(NCCN3CCOCC3)nc(Nc3ccc(Cl)cc3)n2)cc1"
endpoint_label = "MIC"
unit_annotation = "mg/L"
value_relation_sign = ">"
reported = 128

[[record]]
smiles_repr = "OCCN1CCN(c2nc(Nc3ccc(F)cc3)nc(Nc3ccc(F)cc3)n2)CC1"
endpoint_label = "MIC"
unit_annotation = "mg/L"
value_relation_sign = "="
reported = 32

[[record]]
smiles_repr = "Fc1ccc(Nc2nc(Nc3ccc(F)c(F)c3)nc(N3CCN(CCOc4ccccc4)CC3)n2)cc1F"
endpoint_label = "MIC"
unit_annotation = "mg/L"
value_relation_sign = ">"
reported = 128

[[record]]
smiles_repr = "Clc1ccc(Nc2nc(NCCN3CCOCC3)nc(Nc3ccccc3)n2)cc1"
endpoint_label = "MIC"
unit_annotation = "mg/L"
value_relation_sign = "="
reported = 16

[[record]]
smiles_repr = "CC(=O)c1ccc(Nc2nc(Nc3ccc(Br)cc3)nc(Nc3ccc(Br)cc3)n2)cc1"
endpoint_label = "MIC"
unit_annotation = "mg/L"
value_relation_sign = ">"
reported = 64


----------
Test system: Staphylococcus aureus
run description: Antibacterial activity against Staphylococcus aureus RN4220
Assay type: functional
endpoint label: MIC (mg/L)

[[record]]
smiles_repr = "Clc1cccc(Nc2nc(Nc3cccc(Cl)c3)nc(Nc3cccc(Cl)c3)n2)c1"
target_or_test_system = "Staphylococcus aureus"
unit_annotation = "mg/L"
value_relation_sign = ">"
reported = 128

[[record]]
smiles_repr = "OCCN1CCN(c2nc(Nc3ccc(F)c(F)c3)nc(Nc3ccc(F)c(F)c3)n2)CC1"
target_or_test_system = "Staphylococcus aureus"
unit_annotation = "mg/L"
value_relation_sign = "="
reported = 16

[[record]]
smiles_repr = "OCCN1CCN(c2nc(Nc3ccc(F)cc3)nc(Nc3ccc(F)cc3)n2)CC1"
target_or_test_system = "Staphylococcus aureus"
unit_annotation = "mg/L"
value_relation_sign = "="
reported = 64

[[record]]
smiles_repr = "Clc1ccc(Nc2nc(NCCN3CCOCC3)nc(Nc3ccc(Cl)cc3)n2)cc1"
target_or_test_system = "Staphylococcus aureus"
unit_annotation = "mg/L"
value_relation_sign = "="
reported = 4

[[record]]
smiles_repr = "Fc1ccc(Nc2nc(NCCN3CCOCC3)nc(Nc3ccc(F)c(F)c3)n2)cc1F"
target_or_test_system = "Staphylococcus aureus"
unit_annotation = "mg/L"
value_relation_sign = "="
reported = 16

[[record]]
smiles_repr = "CN1CCN(c2nc(Nc3ccc(F)cc3)nc(Nc3ccc(F)cc3)n2)CC1"
target_or_test_system = "Staphylococcus aureus"
unit_annotation = "mg/L"
value_relation_sign = "="
reported = 32

[[record]]
smiles_repr = "CC(C)CN1CCN(c2nc(Nc3ccc(F)c(F)c3)nc(Nc3ccc(F)c(F)c3)n2)CC1"
target_or_test_system = "Staphylococcus aureus"
unit_annotation = "mg/L"
value_relation_sign = "="
reported = 4


----------
target or test system: Replicative DNA helicase (Pseudomonas aeruginosa (strain ATCC 15692 / PAO1 / 1C / PRS 101 / LMG12228))
Sequence (Q9HUN3 whole entry): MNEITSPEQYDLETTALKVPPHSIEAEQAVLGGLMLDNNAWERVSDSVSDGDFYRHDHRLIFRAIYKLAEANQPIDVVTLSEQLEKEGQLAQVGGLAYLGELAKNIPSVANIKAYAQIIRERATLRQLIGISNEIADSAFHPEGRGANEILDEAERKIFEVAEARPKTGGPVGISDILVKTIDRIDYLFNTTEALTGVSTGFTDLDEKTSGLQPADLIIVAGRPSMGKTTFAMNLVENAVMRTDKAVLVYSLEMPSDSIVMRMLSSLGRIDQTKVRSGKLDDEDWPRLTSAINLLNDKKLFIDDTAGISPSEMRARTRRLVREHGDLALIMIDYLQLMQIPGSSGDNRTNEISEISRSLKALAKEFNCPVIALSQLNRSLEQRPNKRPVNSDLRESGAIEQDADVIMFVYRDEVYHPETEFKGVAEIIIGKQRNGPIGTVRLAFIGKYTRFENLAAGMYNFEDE
run description: Inhibition of Pseudomonas aeruginosa DnaB helicase
True if IC50 is below 20 µM. False if not; exact matches included in False.

[[record]]
smiles_repr = "O=[N+]([O-])c1ccc(Nc2nc(NCCN3CCOCC3)nc(Nc3ccc(Cl)cc3)n2)cc1"
class_assignment = "True"

[[record]]
smiles_repr = "Clc1cccc(Nc2nc(Nc3cccc(Cl)c3)nc(Nc3cccc(Cl)c3)n2)c1"
class_assignment = "False"

[[record]]
smiles_repr = "CC(C)CN1CCN(c2nc(Nc3ccc(F)c(F)c3)nc(Nc3ccc(F)c(F)c3)n2)CC1"
class_assignment = "True"

[[record]]
smiles_repr = "CN1CCN(c2nc(Nc3ccc(F)cc3)nc(Nc3ccc(F)cc3)n2)CC1"
class_assignment = "False"

[[record]]
smiles_repr = "OCCN1CCN(c2nc(Nc3ccc(F)c(F)c3)nc(Nc3ccc(F)c(F)c3)n2)CC1"
class_assignment = "True"

[[record]]
smiles_repr = "Fc1ccc(Nc2nc(NCCN3CCOCC3)nc(Nc3ccc(F)cc3)n2)cc1"
class_assignment = "False"

[[record]]
smiles_repr = "Fc1ccc(Nc2nc(NCCN3CCOCC3)nc(Nc3ccc(F)c(F)c3)n2)cc1F"
class_assignment = "True"

[[record]]
smiles_repr = "OCCN1CCN(c2nc(Nc3ccc(F)cc3)nc(Nc3ccc(F)cc3)n2)CC1"
class_assignment = "False"

[[record]]
smiles_repr = "c1ccc(Nc2nc(NCCN3CCOCC3)nc(Nc3ccccc3)n2)cc1"
class_assignment = "False"


----------
Let's look at some compounds and their measured pIC50.
target or test system: Replicative DNA helicase (Pseudomonas aeruginosa (strain ATCC 15692 / PAO1 / 1C / PRS 101 / LMG12228), UniProt Q9HUN3)
Sequence (Q9HUN3 whole entry): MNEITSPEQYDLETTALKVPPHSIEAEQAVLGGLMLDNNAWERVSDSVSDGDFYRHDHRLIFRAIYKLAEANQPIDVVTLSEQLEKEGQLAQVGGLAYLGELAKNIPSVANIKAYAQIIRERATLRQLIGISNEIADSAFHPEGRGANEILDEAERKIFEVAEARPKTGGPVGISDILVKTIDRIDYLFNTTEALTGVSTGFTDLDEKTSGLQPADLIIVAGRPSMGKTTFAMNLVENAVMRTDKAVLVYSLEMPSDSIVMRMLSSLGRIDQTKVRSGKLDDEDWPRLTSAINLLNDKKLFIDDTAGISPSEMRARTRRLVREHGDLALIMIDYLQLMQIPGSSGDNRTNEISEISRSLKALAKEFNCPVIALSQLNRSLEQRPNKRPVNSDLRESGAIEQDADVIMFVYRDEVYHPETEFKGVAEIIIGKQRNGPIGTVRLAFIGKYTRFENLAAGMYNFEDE
run description: Inhibition of Pseudomonas aeruginosa DnaB helicase
pIC50: −log10 of the molar value.
endpoint label: pIC50

[[record]]
smiles_repr = "Fc1ccc(Nc2nc(Nc3ccc(F)c(F)c3)nc(N3CCN(Cc4ccccc4)CC3)n2)cc1F"
value_relation_sign = "="
reported = 5.22

[[record]]
smiles_repr = "Fc1ccc(Nc2nc(Nc3ccc(F)c(F)c3)nc(N3CCN(CCOc4ccccc4)CC3)n2)cc1F"
value_relation_sign = "="
reported = 5.30

[[record]]
smiles_repr = "COc1ccc(Nc2nc(NCCN3CCOCC3)nc(Nc3ccc(OC)cc3)n2)cc1"
value_relation_sign = "<"
reported = 4.00

[[record]]
smiles_repr = "Clc1ccc(Nc2nc(NCCN3CCOCC3)nc(Nc3ccccc3)n2)cc1"
value_relation_sign = "="
reported = 4.19

[[record]]
smiles_repr = "CC(=O)c1ccc(Nc2nc(Nc3ccc(Br)cc3)nc(Nc3ccc(Br)cc3)n2)cc1"
value_relation_sign = "="
reported = 5.22

